# target: succinate-ubiquinone redutase (SDH) of mitochondria from the 3884 strain (SDHB P225H substitution) (Botrytis cinerea, UniProt A0A384J5E4+D2IH01+D2IH03, P225H)
# Sequence (A0A384J5E4 30-300, stated change not applied): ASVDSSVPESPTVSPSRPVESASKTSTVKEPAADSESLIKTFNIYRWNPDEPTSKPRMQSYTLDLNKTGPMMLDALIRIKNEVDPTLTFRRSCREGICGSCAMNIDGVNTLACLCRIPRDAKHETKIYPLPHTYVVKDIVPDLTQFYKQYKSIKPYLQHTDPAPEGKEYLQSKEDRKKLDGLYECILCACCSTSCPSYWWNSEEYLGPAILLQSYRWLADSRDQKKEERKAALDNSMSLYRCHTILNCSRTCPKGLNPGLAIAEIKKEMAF
# Sequence (D2IH03 46-189, stated change not applied): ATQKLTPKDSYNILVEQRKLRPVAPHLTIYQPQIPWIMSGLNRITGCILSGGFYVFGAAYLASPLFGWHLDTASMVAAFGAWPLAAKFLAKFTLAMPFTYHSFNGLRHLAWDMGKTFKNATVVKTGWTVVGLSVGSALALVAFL
# Sequence (D2IH01 64-192, stated change not applied): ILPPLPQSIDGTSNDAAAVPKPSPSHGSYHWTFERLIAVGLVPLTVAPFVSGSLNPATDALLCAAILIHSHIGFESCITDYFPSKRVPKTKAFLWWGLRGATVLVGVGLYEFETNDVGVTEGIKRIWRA
# Sequence (A0A384K456 34-647 partner): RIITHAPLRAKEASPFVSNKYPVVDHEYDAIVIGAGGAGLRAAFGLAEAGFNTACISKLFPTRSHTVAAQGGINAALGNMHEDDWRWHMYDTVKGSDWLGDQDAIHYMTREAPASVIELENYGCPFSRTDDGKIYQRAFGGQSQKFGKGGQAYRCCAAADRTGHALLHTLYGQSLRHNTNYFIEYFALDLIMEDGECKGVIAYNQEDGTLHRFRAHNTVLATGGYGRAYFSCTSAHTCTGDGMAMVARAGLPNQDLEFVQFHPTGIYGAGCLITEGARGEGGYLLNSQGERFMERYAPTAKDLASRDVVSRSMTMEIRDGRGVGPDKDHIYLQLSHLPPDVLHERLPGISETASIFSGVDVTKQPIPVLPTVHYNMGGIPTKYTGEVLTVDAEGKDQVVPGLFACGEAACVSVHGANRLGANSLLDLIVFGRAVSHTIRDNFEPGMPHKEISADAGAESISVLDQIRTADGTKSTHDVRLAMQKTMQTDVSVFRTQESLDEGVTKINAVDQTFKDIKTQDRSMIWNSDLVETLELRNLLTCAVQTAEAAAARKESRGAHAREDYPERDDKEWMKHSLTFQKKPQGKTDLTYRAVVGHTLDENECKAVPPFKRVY
# assay-summary: SDH activity of extracted mitochondria by DCPIP reduction at 595 nm, P225H mutant
# Assay type: biochemical
# condition-notes: mitochondria of 3884 strain, 20 min preincubation, -log 10 of concentration inhibiting DCPIP reduction by 50%; read-out: PI50 P225H3884 (converted)
# Method: Compounds activity was investigated at the level of the mitochondrial target and compared to other SDH inhibitors. Mitochondria were extracted according to Cramer et al. (1983) Analytical biochemistry, 128, 384-392 and the mycelium prepared according to Fritz et al., (1993). Agronomie 13, 225-230 except that spore's incubation was pursued for 48 hours. SDH activity was measured by following DCPIP (2,6-dichlorphenol-indophenol) reduction at 595 nm overtime. […]
Catalogue of compounds with associated IC50
Write the value in nM as a bare number.

Study these solved cases before continuing.
compound="CCc1ccccc1CN(C(=O)c1c(C(F)F)nn(C)c1F)C1CC1 [Compound A21]" measurement=2.51
compound="Cn1nc(C(F)F)c(C(=O)N(Cc2c(Cl)cccc2C(F)(F)F)C2CC2)c1F [Compound A17]" measurement=3.16
compound="Cn1nc(C(F)F)c(C(=O)N(Cc2c(C(F)(F)F)ccc(Cl)c2F)C2CC2)c1F [Compound A18]" measurement=6.31

Now turn to the next compound.
Reported IC50 for CC(C)c1ccc(Cl)cc1CN(C(=O)c1c(C(F)F)nn(C)c1F)C1CC1 [Compound A5] : what is it?
1.26
